Source of measurements: PubChem BioAssay

- systemName: Pro-neuregulin-1, membrane-bound isoform (Homo sapiens)
- measurementDescription: NRG1 binders on small-molecule microarrays, primary screen, psychiatric disease protein project, biochemical, small-molecule microarray, fluorescence 635/667 (AID 1075);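 note: score combines 667 nm spot fluorescence with signal to noise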
- testSettings: NRG1 binding, 635 nm fluorescence, higher = more signal
Would you mind telling me the reported composite z-score of each entry?
Just the number, please.

Recorded composite z-score (compound CO[C@H]1COC(=O)[C@H](C)NC(=O)CC=C[C@@H](C)[C@H](OC)COC(=O)CC=C[C@@H]1C ): -0.745

composite z-score for C[C@@H]1CC[C@@H](C(=O)O)N[C@H]1c1ccc(-c2ccco2)cc1 is 0.486

For reference, reported composite z-score for CCN1C(=O)[C@H]2[C@H]3[C@H](O)[C@H](O)CC(=NNC(=O)OCc4ccc(OC)cc4)[C@H]3CC[C@H]2C1=O stands at -0.116

composite z-score measured on CC(C)=CCCC(C)=CCON=C1C[C@@H](O)[C@@H](O)[C@@H]2[C@@H]3C(=O)N([C@@H](C)c4ccccc4)C(=O)[C@@H]3CC[C@H]12 = 1.13

The value of composite z-score measured for the compound C[C@@H](ON=C1[C@H]2CCn3c(=O)n(-c4ccccc4)c(=O)n3[C@H]2[C@H](O)[C@@H]2O[C@H]12)c1cn([C@H](CO)Cc2ccccc2)nn1 turned out to be 0.11

The compound listed as CCCNC(=O)OC[C@H]1O[C@H](CCON=C(C)CCN2CCc3nc(-c4ccccc4)c(-c4ccccc4)cc3C2)C=C[C@@H]1Oc1ccc(OC)cc1 shows composite z-score equal to 0.48

Item: CC(C)=NO[C@@H](C)c1cc(-c2c(C)cc(C)cc2C)no1 | composite z-score: -0.0227

Please fill in: composite z-score reported for CC(C)=NOC[C@@H](O)COCc1ccco1 = 0.126

---

Task for the reader: assign each of the following molecules its reported z-score.
- systemName: NADPH oxidase 5 (Homo sapiens)
- measurementDescription: NOX5-dependent H2O2 signal modulators, primary screen, NOX inhibitor project, cell-based, HEK293-NOX5, Amplex Red fluorescence (AID 1161)
- testSettings: HEK293-NOX5, ionomycin, 45 min, higher = more signal
Answer using only a numeral; do not append any unit.

// z-score lookup, molecule = COc1ccc(COC(=O)NN=C2C[C@@H](O)[C@@H](O)[C@@H]3[C@@H]4C(=O)N(C(C)(C)C)C(=O)[C@@H]4CC[C@H]23)cc1 , result: -1.43

Form: molecule = CC(C)CCN1CCc2nc(-c3ccccc3)c3c(c2C1)CO[C@@H](C)C3 ; z-score = 0.427

// z-score lookup, molecule = CCCNC(=O)OC[C@H]1O[C@H](CCON=C(C)CCC(=O)OC[C@H]2O[C@H](C#Cc3ccccc3)C=C[C@@H]2Oc2ccc(C)cc2)C=C[C@@H]1Oc1ccc(OC)cc1 , result: -0.746

Briefly, z-score measured for O=C1[C@H]2[C@H]3[C@H](O)[C@H](O)CC(=NOCc4ccccc4)[C@H]3CC[C@H]2C(=O)N1Cc1ccccc1 : -2.42

Recorded result, C[C@@H]1CC[C@@H](C(=O)O)N[C@H]1c1ccc(-c2ccco2)cc1 , z-score: 0.798

So, CCOC(=O)NN=C1C[C@@H](O)[C@@H](O)[C@@H]2[C@@H]3C(=O)N(Cc4ccc5c(c4)OCO5)C(=O)[C@@H]3CC[C@@H]12 ? Its z-score was 0.175

Record summary for COC(=O)[C@H](C)NC(=O)CCC1CC(OC(=O)NCCc2ccc(F)cc2)CC2(CCCC(COC(=O)NCCCN3CCCC3=O)O2)O1 (some centres undefined) : reported z-score = -0.0138

z-score measured on CCOC(=O)[C@H](Cc1ccccc1)NC(=O)CCC1CC(OC(=O)NCc2cccc3ccccc23)CC2(CCCC(COC(=O)NCCCN3CCCC3=O)O2)O1 (some centres undefined) = -0.609

z-score reported for this molecule Cc1ccc(S(=O)(=O)N[C@H]2COC(=O)[C@@H](C)COC(=O)[C@H](C)NC(=O)CC=C[C@H]2C)cc1 : 0.0658

Just so you know, measured z-score for C[C@@H](ON=C1[C@H]2CCn3c(=O)n(-c4ccccc4)c(=O)n3[C@H]2[C@H](O)[C@@H]2O[C@H]12)c1cn([C@H](CO)Cc2ccccc2)nn1 came out at 0.259

Memo: CO[C@@H]1C=CCC(=O)N2CCC[C@H]2C(=O)OC[C@H](C)C(=O)OC[C@H]1C , reported z-score: 0.221

z-score recorded for this molecule, CO[C@@H]1COC(=O)CC=C[C@H](C)COC(=O)[C@H](C)NC(=O)CC=C[C@H]1C , is -0.47

// recorded z-score for CCCNC(=O)OC[C@H]1O[C@H](CCON=C(C)CCN2CCc3nc(-c4ccccc4)c(-c4ccccc4)cc3C2)C=C[C@@H]1Oc1ccc(OC)cc1 : -2.17

The molecule C=C(C)C(=O)OC[C@@H]1CN2[C@@H](CC[C@@H](C)[C@@H]2c2ccc(Br)cc2)C(=O)O1 showed z-score equal to 0.481

---

- System: Inhibin beta A chain (activin A)
- measurementDescription: INHBA (activin A) binders on microarrays, primary screen, biochemical, small-molecule microarray, 635 nm fluorescence scan (AID 1107);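 note: mouse activin A protein probed at 4.33 µg/mL on printed slides; score merges bound-protein fluorescence near 667 nm with spot signal-to-noise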
- testSettings: small-molecule microarray binding, higher = more signal
Give measured composite z-score for each item. Keep answers brief.
Reply: number alone, nothing else.

Record CO[C@H]1COC(=O)CC=C[C@@H](C)COC(=O)[C@@H](OCc2ccccc2)C=C[C@@H]1C , field composite z-score: 1.57

C#CCCCON=C1C[C@@H](O)[C@@H](O)[C@@H]2[C@@H]3C(=O)N(C4CCCCC4)C(=O)[C@@H]3CC[C@H]12 yielded composite z-score of 0.24

Reported composite z-score ( CCN1C(=O)[C@H]2[C@H]3[C@H](O)[C@H](O)CC(=NNC(=O)OCc4ccc(OC)cc4)[C@H]3CC[C@H]2C1=O ) = 0.0193

The reported value for CCOC(=O)[C@H](Cc1ccccc1)NC(=O)CCC1CC(OC(=O)NCc2cccc3ccccc23)CC2(CCCC(COC(=O)NCCCN3CCCC3=O)O2)O1 (stereo not given in full) in terms of composite z-score is -0.0698

In plain terms, CCCNC(=O)OC[C@H]1O[C@H](CCON=C(C)CCN2CCc3nc(-c4ccccc4)c(-c4ccccc4)cc3C2)C=C[C@@H]1Oc1ccc(OC)cc1 has a documented composite z-score of 0.67

Noted for C[C@@H](ON=C1[C@H]2CCn3c(=O)n(-c4ccccc4)c(=O)n3[C@H]2[C@H](O)[C@@H]2O[C@H]12)c1cn([C@H](CO)Cc2ccccc2)nn1 : its composite z-score reads -0.0477

Quick note, composite z-score for CCOC(=O)NN=C1C[C@@H](O)[C@@H](O)[C@@H]2[C@@H]3C(=O)N(Cc4ccc5c(c4)OCO5)C(=O)[C@@H]3CC[C@@H]12 landed at -0.134

So for C[C@@H](c1ccccc1)N1C(=O)[C@H]2[C@H]3[C@H](O)[C@H](O)CC(=O)[C@@H]3CC[C@H]2C1=O , the logged composite z-score turned out to be -0.838

Lab note: O=C(NN=C1C[C@@H](O)[C@@H](O)[C@@H]2[C@@H]3C(=O)N(Cc4ccc5c(c4)OCO5)C(=O)[C@@H]3CC[C@H]12)OCc1ccccc1 gave composite z-score of -2.22

Just so you know, measured composite z-score for CC(C)=NOCc1ccc(-c2cn([C@@H]3COC[C@H]3O)nn2)cc1 came out at 0.147

// recorded composite z-score for CC(C)=NOC[C@@H](O)COCc1ccco1 : 0.912

Note to self: composite z-score recorded for COc1ccc(COC(=O)NN=C2C[C@@H](O)[C@@H](O)[C@@H]3[C@@H]4C(=O)N(C(C)(C)C)C(=O)[C@@H]4CC[C@H]23)cc1 was -0.786

For record O=C1[C@H]2[C@H]3[C@H](O)[C@H](O)CC(=NOCc4ccccc4)[C@H]3CC[C@H]2C(=O)N1Cc1ccccc1 the listed composite z-score is -0.201

Reported composite z-score of CC(C)=NO[C@@H](C)c1cc(-c2c(C)cc(C)cc2C)no1 : 0.952

// composite z-score value for CO[C@@H]1COC(=O)CC=C[C@H](C)COC(=O)[C@H](C)NC(=O)CC=C[C@H]1C : 0.249

---

- systemName: Follistatin (Homo sapiens)
- measurementDescription: follistatin binders on small-molecule microarrays, primary screen, biochemical, small-molecule microarray, 635/667 nm fluorescence (AID 1132)
- testSettings: FST binding, 635 nm fluorescence, higher = more signal
Consider the following compounds; for each one, report its composite z-score.
// no unit string in output, number only

Field composite z-score (entry CC(=O)OC[C@H]1O[C@H](C#CC(C)(C)C)C=C[C@@H]1OC(C)=O ) reads 0.418

Reported composite z-score for C=C(C)C(=O)OC[C@@H]1CN2[C@@H](CC[C@@H](C)[C@@H]2c2ccc(Br)cc2)C(=O)O1 was 0.55

The recorded composite z-score for C[C@@H](ON=C1[C@H]2CCn3c(=O)n(-c4ccccc4)c(=O)n3[C@H]2[C@H](O)[C@@H]2O[C@H]12)c1cn([C@H](CO)Cc2ccccc2)nn1 is 0.523

Lab book: composite z-score of C[C@@H](c1ccccc1)N1C(=O)[C@H]2[C@H]3[C@H](O)[C@H](O)CC(=O)[C@@H]3CC[C@H]2C1=O noted as 0.605

The compound CO[C@H]1COC(=O)[C@H](C)NC(=O)CC=C[C@@H](C)[C@H](OC)COC(=O)CC=C[C@@H]1C showed composite z-score equal to 1.28

For CC(C)=NOC[C@@H](O)COCc1ccco1 the compound record lists composite z-score as 0.112

So for CC(C)CCN1CCc2nc(-c3ccccc3)c3c(c2C1)CO[C@@H](C)C3 , the logged composite z-score turned out to be 0.785

So for CCOC(=O)[C@H](Cc1ccccc1)NC(=O)CCC1CC(OC(=O)NCc2cccc3ccccc23)CC2(CCCC(COC(=O)NCCCN3CCCC3=O)O2)O1 (stereo not given in full) , the logged composite z-score turned out to be 0.625

Value of composite z-score reported for the compound CO[C@@H]1COC(=O)CC=C[C@H](C)COC(=O)[C@H](C)NC(=O)CC=C[C@H]1C is 1.11

Measured composite z-score, CCCNC(=O)OC[C@H]1O[C@H](CCON=C(C)CCC(=O)OC[C@H]2O[C@H](C#Cc3ccccc3)C=C[C@@H]2Oc2ccc(C)cc2)C=C[C@@H]1Oc1ccc(OC)cc1 : -0.437

For this compound ( C#CCCCON=C1C[C@@H](O)[C@@H](O)[C@@H]2[C@@H]3C(=O)N(C4CCCCC4)C(=O)[C@@H]3CC[C@H]12 ), measured composite z-score is -0.0195

Entry COc1ccc(COC(=O)NN=C2C[C@@H](O)[C@@H](O)[C@@H]3[C@@H]4C(=O)N(C(C)(C)C)C(=O)[C@@H]4CC[C@H]23)cc1 — recorded composite z-score = 0.126

GET /value?item= CO[C@H]1COC(=O)CC=C[C@@H](C)COC(=O)[C@@H](OCc2ccccc2)C=C[C@@H]1C &field=composite z-score returns 1.47

Documented composite z-score of CCOC(=O)CCN1C(=O)[C@H]2[C@H]3[C@H](O)[C@H](O)CC(=NNC(=O)OCC)[C@@H]3CC[C@H]2C1=O : -0.124

The value of composite z-score measured for the compound O=C(NN=C1C[C@@H](O)[C@@H](O)[C@@H]2[C@@H]3C(=O)N(Cc4ccc5c(c4)OCO5)C(=O)[C@@H]3CC[C@H]12)OCc1ccccc1 turned out to be -1.07
